Origin of the recorded values: patent US20250171431A1

Target: IGF-1R (Homo sapiens (Human))
Test: Example B-1: IGF-1R Assay (PC3 cells, IGF1 stimulation, AlphaLISA)
Format: cell-based
Details: 200 ng/mL IGF1 stimulation, read-out: Biological Activity against IGF-1R IC50
pIC50: −log10 of the molar value.
Below: a set of entries, each annotated with reported pIC50.
MEASURED_PROPERTY: pIC50

In [3]: df
Out[3]:
                                   molecule  reported_value
0  COc1cc(Nc2nccc(Nc3ccc4ncc(Br)cc4n3)n2)ccc1O[C@H]1C[C@@H](N(C)C)C1          < 5.00
1  COc1cc(Nc2nccc(Nc3cnc4ccc(C5CC5)cc4c3)n2)ccc1O[C@H]1C[C@H](N(C)C)C1          ≥ 6.30
2  COc1cc(Nc2nccc(Nc3cnc4c(c3)C3CCC4C3)n2)ccc1OCCCN1CCCCC1 (stereo not shown)          ≥ 6.30
3  COc1cc(C2CCN(CC#N)CC2)ncc1Nc1nccc(Nc2cc3cccc(F)c3[nH]c2=O)n1          ≥ 6.30
4  COc1cc(Nc2nccc(Nc3cnc4cc(F)c(F)cc4c3)n2)cnc1N1C[C@H]2C[C@@H]1CO2          ≥ 6.30
5  COc1cc(Nc2nccc(Nc3cnc4cc(Cl)ccc4c3)n2)ccc1O[C@H]1C[C@H](N(C)C)C1          ≥ 6.30
6  COc1cc(Nc2nccc(Nc3cnc4c(F)cc(F)cc4c3)n2)cnc1O[C@H]1C[C@@H](N(C)C)C1          ≥ 6.30

====

Molecular target: IGF-1R (Homo sapiens (Human), UniProt P08069)
Sequence (P08069 31-1367): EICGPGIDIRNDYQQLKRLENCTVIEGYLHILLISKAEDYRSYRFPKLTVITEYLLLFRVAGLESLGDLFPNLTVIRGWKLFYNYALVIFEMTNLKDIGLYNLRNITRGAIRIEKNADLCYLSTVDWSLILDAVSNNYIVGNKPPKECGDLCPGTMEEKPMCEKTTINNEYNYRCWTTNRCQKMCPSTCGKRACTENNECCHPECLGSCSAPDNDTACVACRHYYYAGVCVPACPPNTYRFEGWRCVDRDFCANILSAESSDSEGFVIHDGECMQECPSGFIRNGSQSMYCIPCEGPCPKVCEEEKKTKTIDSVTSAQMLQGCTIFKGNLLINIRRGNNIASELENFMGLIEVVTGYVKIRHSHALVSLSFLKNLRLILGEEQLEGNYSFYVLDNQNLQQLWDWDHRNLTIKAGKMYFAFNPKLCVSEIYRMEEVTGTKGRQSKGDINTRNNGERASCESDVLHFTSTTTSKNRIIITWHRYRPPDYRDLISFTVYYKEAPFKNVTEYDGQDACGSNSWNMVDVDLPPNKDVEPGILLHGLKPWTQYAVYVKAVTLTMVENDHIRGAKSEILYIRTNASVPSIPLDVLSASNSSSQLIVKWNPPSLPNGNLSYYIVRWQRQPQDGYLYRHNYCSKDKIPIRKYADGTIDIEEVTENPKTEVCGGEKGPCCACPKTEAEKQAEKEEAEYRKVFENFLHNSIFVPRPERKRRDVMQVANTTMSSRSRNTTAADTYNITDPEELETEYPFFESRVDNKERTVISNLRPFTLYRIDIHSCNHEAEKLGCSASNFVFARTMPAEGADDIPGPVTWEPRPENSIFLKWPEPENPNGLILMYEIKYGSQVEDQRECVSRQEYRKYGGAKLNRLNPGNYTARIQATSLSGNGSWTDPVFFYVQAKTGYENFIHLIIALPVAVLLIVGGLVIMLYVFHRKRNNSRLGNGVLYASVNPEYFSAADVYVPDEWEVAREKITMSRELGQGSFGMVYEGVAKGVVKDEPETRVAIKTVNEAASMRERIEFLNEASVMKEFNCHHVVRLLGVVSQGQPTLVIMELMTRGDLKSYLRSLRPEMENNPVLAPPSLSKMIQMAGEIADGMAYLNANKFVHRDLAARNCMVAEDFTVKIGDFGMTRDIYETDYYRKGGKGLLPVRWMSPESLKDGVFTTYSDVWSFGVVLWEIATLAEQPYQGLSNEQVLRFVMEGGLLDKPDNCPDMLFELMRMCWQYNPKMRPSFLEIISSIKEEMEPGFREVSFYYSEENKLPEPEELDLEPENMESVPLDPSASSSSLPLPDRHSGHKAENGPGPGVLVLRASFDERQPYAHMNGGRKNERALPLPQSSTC
Assay: Example B-1: IGF-1R Assay (PC3 cells, IGF1 stimulation, AlphaLISA)
Format: cell-based
Settings: 200 ng/mL IGF1 stimulation, read-out: Biological Activity against IGF-1R IC50
pIC50: −log10 of the molar value.
MEASURED_PROPERTY: pIC50

>>> print(df.to_string())
                                   compound                                    system  reported_value
0  COc1cc(Nc2nccc(Nc3cnc4ccc(OC(F)(F)F)cc4c3)n2)ccc1OCCCN1CCCCC1 [Compound 6]  IGF-1R (Homo sapiens (Human), UniProt P08069)          ≥ 6.30
1  c1ccc2ncc(Nc3ccnc(Nc4ccc5c(ccn5CC5CCOCC5)c4)n3)cc2c1 [Compound 501]  IGF-1R (Homo sapiens (Human), UniProt P08069)    5.70 to 6.30
2  CN(C)[C@H]1C[C@H](Oc2ccc(Nc3nccc(Nc4cnc5ccc(Br)cc5c4)n3)cc2)C1 [Compound 320]  IGF-1R (Homo sapiens (Human), UniProt P08069)          ≥ 6.30
3  COc1cc([C@H]2CC[C@](C)(O)CC2)ccc1Nc1nccc(Nc2cc3cccc(F)c3[nH]c2=O)n1 [Compound 215]  IGF-1R (Homo sapiens (Human), UniProt P08069)          ≥ 6.30

====

Target: IGF-1R (Homo sapiens (Human), UniProt P08069)
Assay: Example B-1: IGF-1R Assay (PC3 cells, IGF1 stimulation, AlphaLISA)
Assay type: cell-based
Details: 200 ng/mL IGF1 stimulation, read-out: Biological Activity against IGF-1R IC50
MEASURED_PROPERTY: IC50

In [3]: df
Out[3]:
                                    molecule    reported_value
 0  COc1ccc2cc(Nc3ccnc(Nc4ccc(O[C@H]5C[C@@H](N6CCOCC6)C5)cc4)n3)cnc2c1 [Compound 352]  2000 to 10000 nM
 1  COc1cc(Nc2nccc(Nc3cnc4ccc(Br)cc4c3)n2)ccc1O[C@H]1C[C@H](N(C)C)C1 [Compound 199]          ≤ 500 nM
 2  COc1cc(Nc2nccc(Nc3cnc4c(c3)COCC4)n2)ccc1OCCCN1CCCCC1 [Compound 53]          ≤ 500 nM
 3  COc1nc(C2CCOCC2)ccc1Nc1nccc(Nc2cc3cccc(F)c3[nH]c2=O)n1 [Compound 224]          ≤ 500 nM
 4  COc1cc(Nc2nccc(Nc3cnc4cc(Br)cnc4c3)n2)ccc1O[C@H]1C[C@@H](N(C)C)C1 [Compound 316]          ≤ 500 nM
 5  COc1cc(Nc2nccc(Nc3cnc4c(c3)SCCC4)n2)ccc1OCCCN1CCCCC1 [Compound 378]          ≤ 500 nM
 6  COc1cc(Nc2nccc(Nc3cnc4[nH]ccc4c3)n2)ccc1O[C@H]1C[C@@H](N(C)C)C1 [Compound 301]          ≤ 500 nM
 7  COc1cc(Nc2nccc(Nc3cnc4[nH]cc(Br)c4c3)n2)ccc1O[C@H]1C[C@@H](N(C)C)C1 [Compound 203]          ≤ 500 nM
 8  COc1ccc2cc(Nc3ccnc(Nc4ccc(N5CCN(C)CC5)cc4OC)n3)cnc2c1 [Compound 463]          ≤ 500 nM
 9  COc1cc(Nc2nc(N)cc(Nc3cnc4cc(F)c(F)cc4c3)n2)cnc1O[C@H]1C[C@@H](N(C)C)C1 [Compound 252]  2000 to 10000 nM
10  COc1cc(Nc2nccc(Nc3cnc4c(c3)OCCO4)n2)ccc1O[C@H]1C[C@H](N(C)C)C1 [Compound 357]          ≤ 500 nM
11  COc1cc(Nc2nccc(Nc3cnc4ccc(Cl)cc4c3)n2)cnc1O[C@H]1C[C@@H](N(C)C)C1 [Compound 131]          ≤ 500 nM
12  COc1cc(Nc2nccc(Nc3cnc4ncc(F)cc4c3)n2)ccc1O[C@H]1C[C@@H](N(C)C)C1 [Compound 86]          ≤ 500 nM
13  O=c1[nH]c2ccccc2cc1Nc1ccnc(Nc2ccc(OCCCN3CCOCC3)cc2)n1 [Compound 251]          ≤ 500 nM
14  COc1cc(Nc2nccc(Nc3cnc4cc(F)c(F)cc4c3)n2)c(Cl)cc1O[C@H]1C[C@@H](N(C)C)C1 [Compound 153]          ≤ 500 nM
15  COc1cc(Nc2nccc(Nc3cnc4cncc(F)c4c3)n2)ccc1O[C@H]1C[C@@H](N(C)C)C1 [Compound 88]          ≤ 500 nM
16  COc1cc([C@H]2CC[C@@](C)(O)CC2)ccc1Nc1nccc(Nc2cc3cccc(F)c3[nH]c2=O)n1 [Compound 216]          ≤ 500 nM
17  COc1cc(Nc2nccc(Nc3cnc4c(c3)OCCO4)n2)cc(C#N)c1O[C@H]1C[C@H](N(C)C)C1 [Compound 44]          ≤ 500 nM
18  COc1cc(Nc2nccc(Nc3cnc4c(c3)CCCO4)n2)ccc1O[C@H]1C[C@H](N2CCOCC2)C1 [Compound 360]          ≤ 500 nM
19  FC(F)(F)Oc1cccc2cc(Nc3ccnc(Nc4ccc(OCCCN5CCOCC5)cc4)n3)cnc12 [Compound 404]  2000 to 10000 nM
20  COc1cc(Nc2ncc(F)c(Nc3cc4ccccc4nc3C(N)=O)n2)ccc1O[C@H]1C[C@@H](N(C)C)C1 [Compound 193]          ≤ 500 nM
21  c1ccc2ncc(Nc3ccnc(Nc4ccc(OCCCN5CCCCC5)c(OCC5CC5)c4)n3)cc2c1 [Compound 425]          ≤ 500 nM
22  Fc1ccc2cc(Nc3ccnc(Nc4ccc(OCCCN5CCOCC5)cc4)n3)cnc2c1F [Compound 403]  2000 to 10000 nM
23  COc1cc(Nc2nccc(Nc3cc4cccc(F)c4[nH]c3=O)n2)cnc1O[C@@H]1CCN(C)C1 [Compound 165]    500 to 2000 nM
24  COc1cc(Nc2nccc(Nc3cnc4c(c3)CCCC4)n2)ccc1O[C@H]1C[C@@H](N(C)C)C1 [Compound 364]          ≤ 500 nM
25  O=S1(=O)CCN(CCCOc2ccc(Nc3nccc(Nc4cnc5ccc(Br)cc5c4)n3)cc2)CC1 [Compound 206]          ≤ 500 nM
26  O=S1(=O)CCN(CCCOc2ccc(Nc3nccc(Nc4cnc5c(c4)OCCO5)n3)cc2)CC1 [Compound 506]          ≤ 500 nM
27  CN1CC(Oc2ccc(Nc3nccc(Nc4cnc5ccc(Cl)cc5c4)n3)cc2)C1 [Compound 294]  2000 to 10000 nM
28  COc1cc(Nc2nccc(Nc3cnc4cc(F)c(F)cc4c3)n2)cnc1N1CCOCC1 [Compound 469]          ≤ 500 nM
29  COc1cc(Nc2cc(Nc3cnc4ccccc4c3)ccn2)ccc1O[C@H]1C[C@@H](N(C)C)C1 [Compound 265]  2000 to 10000 nM
